# Lookup of reported koff keyed by entry
tested_on: cyno serum albumin (cyno, UniProt A2V9Z4 25-608)
Sequence (A2V9Z4 25-608 limits assumed): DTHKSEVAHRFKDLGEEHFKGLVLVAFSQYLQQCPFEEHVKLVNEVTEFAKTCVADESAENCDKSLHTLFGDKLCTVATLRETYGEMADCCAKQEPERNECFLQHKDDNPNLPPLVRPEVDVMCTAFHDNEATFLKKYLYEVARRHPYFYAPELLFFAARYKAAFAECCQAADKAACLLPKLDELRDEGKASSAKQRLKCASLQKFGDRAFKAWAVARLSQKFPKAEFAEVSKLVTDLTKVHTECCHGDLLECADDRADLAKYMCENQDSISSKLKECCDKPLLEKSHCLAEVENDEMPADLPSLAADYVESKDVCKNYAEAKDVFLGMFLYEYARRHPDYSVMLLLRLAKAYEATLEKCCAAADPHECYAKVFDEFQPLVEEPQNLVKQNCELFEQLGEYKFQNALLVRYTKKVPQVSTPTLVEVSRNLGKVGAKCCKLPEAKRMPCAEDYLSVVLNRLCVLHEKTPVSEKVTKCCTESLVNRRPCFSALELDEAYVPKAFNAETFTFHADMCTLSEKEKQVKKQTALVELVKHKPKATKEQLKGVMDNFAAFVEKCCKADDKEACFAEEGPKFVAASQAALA
assay_text: ProteOn kinetic analysis
Provide the reading as a plain figure in s⁻¹.

Answered cases to consult:
SEQ ID NO 127 (VHH, also called T at position 30) VHH: DVQLVESGGGVVQPGGSLRLSCAASGFTFTSFGMSWVRQAPGKGPEWVSSISGSGSDTLYADSVKGRFTISRDNSKNTLYLQMNSLRPEDTALYYCTIGGSLSRSGQGTLVTVSS	0.0014
SEQ ID NO 129 (VHH, also called T at position 30) VHH: DVQLVESGGGVVQPGGSLRLSCAASGFTFTSFGMSWVRQAPGKGPEWVSSISGSGSDTLYADSVKGRFTISRDNSKNTLYLQMNSLRPEDTATYYCTIGGSLSRSGQGTLVTVSS	0.0015
SEQ ID NO 145 (VHH, also called T at position 30) VHH: DVQLVESGGGVVQPGGSLRLSCAASGFTFTSFGMSWVRQAPGKGPEWVSSISGSGSDTLYADSVKGRFTISRDNSKNTLYLQMNSLRPEDTAAYYCTIGGSLSRSGQGTLVTVSS	0.0015

# input I'd like to know its koff. The binder in question is SEQ ID NO 10 (VHH, also called R at position 30) VHH: EVQLVESGGGVVQPGGSLRLSCAASGFTFRSFGMSWVRQAPGKGPEWVSSISGSGSDTLYADSVKGRFTISRDNSKNTLYLQMNSLRPEDTALYYCTIGGSLSRSSQGTLVTVSS
# output 0.00081
